assayed_target: Ubiquitin carboxyl-terminal hydrolase 1 (Homo sapiens)
measurement_notes: Inhibitors of USP1/UAF1: Pilot qHTS (AID 504865); note: nearly all actives have a fitted effect of over 35% in size
condition_set: purified USP1/UAF1, Ub-rhodamine cleavage fluorescence; series mostly up to 114 µM
Results filed as inconclusive are left out. Calls of active or inactive are those of the source. Calls come from the whole dose curve; as a rule, active = well fitted inhibition curve with a large enough effect; inconclusive = small, poorly fitted or top-dose-only effect; inactive = flat fitted curve, though single readings scatter.
A correct response names exactly one class from active, inactive

C[C@@H]1O[C@H](O[C@@H]2CC[C@@]3(C=O)[C@H]4CC[C@@]5(C)[C@@H](C6=CC(=O)OC6)CC[C@@]5(O)[C@@H]4CC[C@]3(O)C2)C[C@H](O)[C@@H]1O | inactive

Q: Recorded call for ClC1=C(Cl)C2(Cl)C3C4C=CC(C4)C3C1(Cl)C2(Cl)Cl (configuration not stated) ?
Result: inactive

Q: Recorded call for CCN1C[C@@]2(COC)[C@H]3[C@@H](OC)[C@H]4C1[C@@]3([C@H](OC)C[C@@H]2O)[C@H]1C[C@@]2(O)[C@@H](OC(=O)c3ccccc3)[C@@H]1[C@@]4(OC(C)=O)[C@H](O)[C@@H]2OC ?
Result: inactive

Q: Recorded call for CCC(=O)Nc1ccc(Cl)c(Cl)c1 ?
Result: inactive

Q: Recorded call for C[C@@]12CC[C@H](O)C[C@@H]1CC[C@H]1[C@H]2CC[C@@]2(C)[C@@H](C3=CC(=O)OC3)CC[C@]12O ?
Result: inactive

Q: Recorded call for CC[C@@]1(O)CC(O)c2c(cc3c(c2O)C(=O)c2c(O)ccc(O)c2C3=O)C1C(=O)OC (some centres not stated) ?
Result: active

Q: Recorded call for C=C[C@]12CN(C)[C@H]3C1[C@@]1(C(=O)Nc4ccccc41)[C@H]1C[C@H]2[C@H]3CO1 ?
Result: inactive

* * *

assayed_target: Thyrotropin receptor (Homo sapiens) (UniProt P16473)
Sequence (P16473 whole entry, looked up): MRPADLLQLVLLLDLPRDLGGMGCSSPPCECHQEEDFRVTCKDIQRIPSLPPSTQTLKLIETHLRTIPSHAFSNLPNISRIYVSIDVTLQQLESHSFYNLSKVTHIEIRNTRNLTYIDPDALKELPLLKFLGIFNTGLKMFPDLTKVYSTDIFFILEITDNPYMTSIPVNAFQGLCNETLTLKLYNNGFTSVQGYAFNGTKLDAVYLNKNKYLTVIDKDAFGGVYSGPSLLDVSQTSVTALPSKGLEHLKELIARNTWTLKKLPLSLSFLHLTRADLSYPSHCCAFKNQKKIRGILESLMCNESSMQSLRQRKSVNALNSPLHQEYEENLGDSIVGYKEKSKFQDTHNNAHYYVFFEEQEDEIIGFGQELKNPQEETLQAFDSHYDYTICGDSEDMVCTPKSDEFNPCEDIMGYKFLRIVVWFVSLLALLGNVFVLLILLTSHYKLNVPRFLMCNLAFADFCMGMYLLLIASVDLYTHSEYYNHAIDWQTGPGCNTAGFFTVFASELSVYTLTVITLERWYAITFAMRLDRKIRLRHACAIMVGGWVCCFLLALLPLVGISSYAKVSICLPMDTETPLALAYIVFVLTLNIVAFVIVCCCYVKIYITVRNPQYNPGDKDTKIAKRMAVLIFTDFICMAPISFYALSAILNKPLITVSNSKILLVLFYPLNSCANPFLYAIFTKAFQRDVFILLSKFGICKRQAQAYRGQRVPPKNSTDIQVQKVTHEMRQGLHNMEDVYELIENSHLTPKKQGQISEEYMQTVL
measurement_notes: qHTS Assay for Antagonists of the Thyroid Stimulating Hormone Receptor (AID 488980);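 note: TSHR-transfected HEK293 cells stimulated with TSH at EC80 of 4 nM; 0% is about no effect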
condition_set: TSHR-expressing cells, cAMP antagonist read-out; series mostly up to 57.5 µM
Activity calls are given as the source filed them. The call rests on the fitted dose curve; in most records, active means well fitted curve in the direction sought with a large enough effect; inconclusive means small, poorly fitted or top-dose-only effect, or another doubt; inactive means no such curve, though single readings can be large or run the other way.
assay_readout: outcome

Worked cases, outcome given:
Nc1ncnc2c1ncn2[C@@H]1O[C@H](COP(=O)(O)CP(=O)(O)OP(=O)(O)O)[C@H](O)[C@H]1O | inactive
CCCCN1C2CCC1CC(OC(c1ccc(F)cc1)c1ccc(F)cc1)C2 (configuration not stated) | inactive
CC(C)(O)C1C2OC(=O)C1[C@]1(O)C[C@H]3O[C@]34C(=O)O[C@H]2[C@]14C (some centres not stated) (tested in a mixture with another compound) | inactive
NCC#Cc1ccccc1 | inactive
CCCC[N+]1(C)C2CC(OC(=O)C(CO)c3ccccc3)CC1C1OC12 (configuration not stated) | inactive
CC1Cc2cc3c(cc2C(c2ccc(N)cc2)=NN1)OCO3 (configuration not stated) | inactive
C[C@]12CC[C@H]3[C@@H](CCC4C[C@H](O)CC[C@@]43C)[C@@H]1CC[C@@H]2O (some centres not stated) | inactive
CCCN1CCc2cccc3c2C1Cc1ccc(O)c(O)c1-3 (configuration not stated) | inactive
O=C(O)C1C2CCC(O2)C1C(=O)O (configuration not stated) | inactive
CCCN1CCC[C@@H]2Cc3n[nH]cc3C[C@H]21 | inactive

Q: // query outcome value for entry C[C@]12CC[C@H](O)CC1=CCC1C2CC[C@]2(C)C(=O)CC[C@@H]12 (some centres not stated)
Result: inactive

Q: // query outcome value for entry CCN1C[C@]2(C)CC[C@H](O)[C@@]34[C@@H]5C[C@@H]6[C@@H](OC)C[C@@](O)(C5[C@H]6O)[C@@H](C[C@@H]23)[C@@H]14
Result: inactive

* * *

Test system: CP260
measurement_notes: qHTS profiling for inhibitors of Plasmodium falciparum proliferation (AID 504749); note: nearly all actives have a fitted effect of over 60% in size
condition_set: P. falciparum in erythrocytes, SYBR Green DNA, 72 h; series mostly up to 28.7 µM
Results filed as inconclusive are left out. Activity calls are given as the source filed them. The call rests on the fitted dose curve; in most records, active means well fitted inhibition curve with a large enough effect; inconclusive means small, poorly fitted or top-dose-only effect; inactive means flat fitted curve, though single readings scatter.
A correct response names exactly one class from 1 for active, 0 for inactive

Past entries and their recorded results:
CCNC[C@H](O)c1cccc(O)c1 | 0
Clc1ccc([C@@H](OCCN2CCCCC2)c2ccccc2)cc1 | 1
CCCC[N+]1(C)C2CC(OC(=O)C(CO)c3ccccc3)CC1C1OC12 (stereo unspecified) | 0
C[C@]12CC[C@H]3[C@@H](CCC4=CC(=O)CC[C@@]43C)[C@@H]1CC[C@@H]2O | 0
CO[C@@H](COC(N)=O)C1=C(N2CC2)C(=O)C(C)=C(N2CC2)C1=O | 1
Oc1ccc2c3c1O[C@H]1[C@@H](O)CC[C@@]4(O)C(C2)N(CC2CCC2)CCC314 (stereo partly specified) | 0

Q: Recorded call for C[N+]1(C)[C@@H]2CC[C@H]1CC(OC(=O)[C@@H](CO)c1ccccc1)C2 (stereo partly specified) ?
Result: 0

Q: Recorded call for COc1cc2c(cc1OC)[C@@]13CCN4CC5=CCOC6CC(=O)N2C1[C@H]6[C@@H]5C[C@@H]43 (stereo partly specified) ?
Result: 0

Q: Recorded call for C[C@H](N)[C@@H](O)c1ccccc1 ?
Result: 0

Q: Recorded call for C[N+]1([O-])[C@@H]2CC[C@H]1CC(OC(=O)[C@@H](CO)c1ccccc1)C2 (stereo partly specified) ?
Result: 0

Q: Recorded call for CC1=C2[C@@H]3OC(=O)[C@@H](C)[C@@H]3CC[C@]2(C)C=CC1=O ?
Result: 0

* * *

measurement_notes: qHTS Assay for Lipid Storage Modulators (AID 1519); note: % is set by controls: 0 for no effect and ±100 for the full control effect
condition_set: Drosophila S3 cells, BODIPY lipid droplet/cell ratio, laser cytometry; at 25.7 µM (top of the series); cells loaded with oleic acid
Method: NIH Molecular Libraries Probe Production Centers Network [MLPCN] NIH Chemical Genomics Center [NCGC] Assay Submitter (PI): Beller, Mathias; Max-Planck-Institut fur Biophysikalische Chemie […] We dispensed 4 uL of cells at 1.25 x 10^6 cells/mL into LoBase Aurora COC 1,536-well plates (black walled, clear bottom) with a bottle-valve solenoid-based dispenser (Aurora) to obtain 5,000 cells/well. […] The ratio of the total intensity in PMT channel 1 over total intensity of channel 3 was also calculated. […]
Records with an inconclusive call do not appear.
Each entry below carries its recorded activity change, negative = inhibition.
Give the quantity in %, number only.

CC[C@H]1CN2CC[C@@H]1C[C@H]2[C@@H](O)c1ccnc2ccc(OC)cc12 | -3.88
COc1ccc(OC)c([C@H](O)[C@H](C)N)c1 | 1.13
CC(C)C[C@H]1C(=O)N2CCC[C@@H]2[C@]2(O)O[C@](NC(=O)[C@H]3C=C4c5cccc6[nH]c(Br)c(c56)C[C@H]4N(C)C3)(C(C)C)C(=O)N12 | -0.675

Q: // query activity change, negative = inhibition value for entry CC1=CC(=O)C2=C(C)C[C@@H](O)[C@@H]3[C@@H](OC(=O)[C@H]3C)[C@H]12
Result: -1.62

Q: // query activity change, negative = inhibition value for entry COP(=O)(OC)[C@@H](O)C(Cl)(Cl)Cl
Result: -2.04

* * *

Tested on: TAB109
measurement_notes: qHTS profiling for inhibitors of Plasmodium falciparum proliferation (AID 504749); note: nearly all actives have a fitted effect of over 60% in size
condition_set: P. falciparum in erythrocytes, SYBR Green DNA, 72 h; series mostly up to 12.8 µM
Results filed as inconclusive are left out. Calls of active or inactive are those of the source. Calls follow the shape of the dose curve; as a rule, active = well fitted inhibition curve with a large enough effect; inconclusive = small, poorly fitted or top-dose-only effect; inactive = flat fitted curve, though single readings scatter.
A correct response names exactly one class from class 1 = active, class 0 = inactive

C[C@]12CC[C@H](O)CC1=CCC1C2CC[C@]2(C)C(=O)CC[C@@H]12 (stereo partly specified) | class 0
C[C@]12CC[C@H](O)C[C@H]1CCC1C2CC[C@]2(C)[C@@H](c3ccc(=O)oc3)C[C@H]3O[C@]132 (stereo partly specified) | class 0
C[N+]1(C)[C@@H]2CC[C@H]1CC(OC(=O)[C@@H](CO)c1ccccc1)C2 (stereo partly specified) | class 0
COc1ccc2c(c1OC)CN1CCc3cc4c(cc3[C@H]1C2)OCO4 | class 1

Q: Recorded call for CCNC[C@H](O)c1cccc(O)c1 ?
Result: class 0

Q: Recorded call for CC(C)c1c(CN(C)[C@@H](C)Cc2ccccc2)n(C)n(-c2ccccc2)c1=O ?
Result: class 0

* * *

assayed_target: Cytochrome P450 1A2 (Homo sapiens) (UniProt P05177)
Sequence (P05177 whole entry, looked up): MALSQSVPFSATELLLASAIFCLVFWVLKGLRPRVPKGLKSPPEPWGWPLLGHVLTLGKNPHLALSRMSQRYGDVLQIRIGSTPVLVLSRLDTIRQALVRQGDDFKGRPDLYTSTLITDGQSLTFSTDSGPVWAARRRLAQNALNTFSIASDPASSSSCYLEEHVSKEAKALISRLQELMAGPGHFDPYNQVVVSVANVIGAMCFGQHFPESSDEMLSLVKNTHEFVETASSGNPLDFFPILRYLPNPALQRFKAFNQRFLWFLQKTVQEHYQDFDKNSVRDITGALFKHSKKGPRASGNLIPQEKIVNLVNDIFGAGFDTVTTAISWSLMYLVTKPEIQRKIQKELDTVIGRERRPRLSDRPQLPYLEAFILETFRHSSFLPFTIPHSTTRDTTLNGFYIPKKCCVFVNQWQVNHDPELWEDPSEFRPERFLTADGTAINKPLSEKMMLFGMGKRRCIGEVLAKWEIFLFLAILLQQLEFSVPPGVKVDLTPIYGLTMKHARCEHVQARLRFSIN
measurement_notes: p450-cyp1a2 (AID 410)
condition_set: recombinant CYP1A2, luciferin-ME demethylation, luminescence; series mostly up to 25.6 µM
Records with an inconclusive call do not appear. Activity calls are given as the source filed them. Calls follow the shape of the full dose curve.
A correct response names exactly one class from true (1) = active, false (0) = inactive

CCN1C[C@@]2(COC)[C@H]3[C@@H](OC)[C@H]4C1[C@@]3([C@H](OC)C[C@@H]2O)[C@H]1C[C@@]2(O)[C@@H](OC(=O)c3ccccc3)[C@@H]1[C@@]4(OC(C)=O)[C@H](O)[C@@H]2OC | false (0)
C=C[C@]12CN(C)[C@H]3C1[C@@]1(C(=O)Nc4ccccc41)[C@H]1C[C@H]2[C@H]3CO1 | false (0)
O=C(Oc1ccccc1)N1CCC2(CCCN(Cc3ccccc3)C2)CC1 | false (0)
N#Cc1cccc(NC(=O)N2CC3(CCN(C(=O)Oc4ccccc4)CC3)C2)c1 | true (1)
COc1ccc(NC(=O)N2CCCC3(CCN(C(=O)Oc4ccccc4)CC3)C2)cc1 | true (1)
CC[C@H]1CN2CC[C@@H]1C[C@H]2[C@@H](O)c1ccnc2ccc(OC)cc12 | false (0)
c1csc(CN2CCC3(CCNCC3)CC2)n1 | false (0)
O=C(OC1CCN(CCCl)CC1)C(c1ccccc1)c1ccccc1 | true (1)
c1ccc(N2CC[C@@]3(CCCNC3)C2)nc1 | false (0)
NCC#Cc1ccccc1 | true (1)

Q: Recorded call for CC(C)CN1CC2(CCN(C(=O)Oc3ccccc3)CC2)C1 ?
Result: false (0)

Q: Recorded call for CCC[C@@](C)(COC(N)=O)COC(=O)NC(C)C ?
Result: false (0)
